test system: Escherichia coli; assay: Synergistic antibacterial activity against Escherichia coli BL21 (DE3) harboring serine beta lactamase KPC-2 assessed as meropenem MIC at 64 microg/ml measured after 16 hrs by CLSI protocol based broth microdilution method (reference value: 16 microg/ml); assay type: functional; conditions: dose 64 µg/ml

| Smiles representation | MIC, µg/mL |
| --- | --- |
| O=C(CCCc1ccccc1)NOC(=O)OCc1ccccc1 | 4 |
| CCCCCOC(=O)ONC(=O)CCc1ccccc1 | 8 |
| O=C(CC(c1ccccc1)c1ccccc1)NOC(=O)OCc1ccccc1 | 8 |
| CCOC(=O)ONC(=O)CC(c1ccccc1)c1ccccc1 | 8 |
| CC(C)COC(=O)ONC(=O)CCCc1ccccc1 | 8 |
| O=C(CCC1CCCCC1)NOC(=O)OCc1ccccc1 | 16 |
